The measurements presented in this section are drawn from paper PMC7583830.

# assay summary: Biodistribution in BALB/c mice
# Format: in vivo
# settings: female, BALB/c, mouse, spleen, iv, 30 MBq, total radioactivity; 30 min p.i.; read-out: uptake in spleen
Where a SMILES comes first, the peptide text is derived from it. [ ]: non-standard residue; d: D form. The star is where a group is joined. DOTA = O=C(O)CN1CCN(CC(=O)O)CCN(CC(=O)*)CCN(CC(=O)O)CC1; 1Nal = N[C@@H](Cc1cccc2ccccc12)C(=O)O; NMeNle = CCCC[C@H](NC)C(=O)O
reported property: tissue uptake at 0.5 h (%ID/g)
Supply the numeric figure in %ID/g, leaving out any unit text.

Q: // query tissue uptake at 0.5 h value for entry CCCC[C@@H](C(=O)N[C@@H](CC(=O)O)C(=O)N[C@@H](Cc1cccc2ccccc12)C(N)=O)N(C)C(=O)[C@H](Cc1c[nH]c2ccccc12)NC(=O)CNC(=O)[C@H](Cc1ccc(O)cc1)NC(=O)[C@@H]1CCCN1C(=O)[C@@H](CCC(=O)O)NC(=O)CN1CCN(CC(=O)O)CCN(CC(=O)O)CCN(CC(=O)O)CC1 [[^177Lu]Lu-1, metal not drawn] ({DOTA}-[dE]PYGW[NMeNle]D[1Nal]-NH2)
A: 2
